# METHOD DESCRIPTION: qHTS Assay for Lipid Storage Modulators in Drosophila S3 Cells
# CONDITION LABEL: BODIPY lipid droplet fluorescence, 18-24 h, cells fed with added oleic acid; series mostly up to 46.1 µM
The whole screen tested about 320,000 compounds, of which about 2,100 (0.66%) were called active. Roughly 53% stayed inconclusive and do not appear here. Calls follow the shape of the dose curve; as a rule, active = well fitted inhibition curve with a large enough effect in the signal ratio, with a control signal flat (not every such curve was filed as active); inconclusive = small, poorly fitted or top-dose-only effect, or effect the other way, or a change in a side signal; inactive = flat fitted curve, though single readings scatter; the % refers to the signal ratio. This excerpt belongs to a sample that is enriched for actives.
Please state which outcome applies, choosing from active, inactive

Cc1ccc2c(N)c(C(=O)N(c3ccccc3)c3ccccc3)sc2n1 : inactive
O=[N+]([O-])c1ccc(Oc2ccc(/C=N/O)cc2)nc1 : inactive
Cc1ccc(OCC(=O)Nc2cccc(-c3nnc(-c4ccccc4)o3)c2)cc1 : inactive
Cc1cc(F)ccc1S(=O)(=O)N1CCCOC1CNC(=O)C(=O)NC1CCCC1 (configuration not stated) : inactive
N#Cc1cccc(NC(=O)COC(=O)CCc2ccc(S(=O)(=O)N3CCOCC3)cc2)c1 : inactive

In: Write down the call the test reported for this compound. Item: `O=C(CN(C(=O)CCC(=O)Nc1nccs1)c1ccc2c(c1)OCO2)NCc1ccccc1`
Out: inactive

In: Request: `O=C(N/N=C/c1ccco1)c1cc(-c2cccc3ccccc23)n[nH]1`
Out: inactive

In: Then this compound: `CCCCN(CC)C(=O)c1n[nH]c(=O)c2ccccc12`
Out: active

In: Param item: O=C(NCCO)C(=O)NCC1OCCCN1S(=O)(=O)c1cc(F)ccc1F (configuration not stated)
Out: inactive

In: Now the compound `O=S(=O)(Cc1ccccc1)Nc1ccc(S(=O)(=O)N2CCCC2)cc1`
Out: inactive

In: Another: `O=C(Nc1ccc(CN2CCOCC2)cc1)c1ccc(-c2cccc([N+](=O)[O-])c2)o1`
Out: active

In: Next compound: `C/C(=N\NC(=O)NC1CCCCC1)c1ccc(Cl)s1`
Out: inactive

In: Entry to check: `O=C(N=C1N=C2C=CC=CN2Cc2ccccc21)c1ccc(S(=O)(=O)N2CCCC2)cc1`
Out: inactive

In: Can you check `Cc1ccc(C)c(NC(=O)COc2coc(CN3CCc4ccccc4C3)cc2=O)c1` next?
Out: active

In: Can you check `COc1ccnc(Oc2cc(Cl)cc(Cl)c2)c1C#N` next?
Out: inactive

In: Likewise for Cc1ccc(S(=O)(=O)CC2CSc3nc(N)cc(=O)n32)cc1 (configuration not stated) ?
Out: inactive

###

# METHOD DESCRIPTION: qHTS Assay for Lipid Storage Modulators in Drosophila S3 Cells
# CONDITION LABEL: BODIPY lipid droplet fluorescence, 18-24 h, cells fed with added oleic acid; series mostly up to 46.1 µM
The campaign covered roughly 320,000 compounds. About 2,100 (0.66%) were called active. Roughly 53% stayed inconclusive and do not appear here. Calls come from the whole dose curve; as a rule, active = well fitted inhibition curve with a large enough effect in the signal ratio, with a control signal flat (not every such curve was filed as active); inconclusive = small, poorly fitted or top-dose-only effect, or effect the other way, or a change in a side signal; inactive = flat fitted curve, though single readings scatter; the % refers to the signal ratio. The sample as a whole holds a higher share of actives than the screen did.
Returns: one label drawn from active, inactive

Worked examples follow.
COc1ccc(NC(=O)C2C(c3ccccc3)C2(Cl)Cl)cc1 (stereo unspecified) : inactive
Cc1ccc(S(=O)(=O)CNC(=O)c2ccccc2)cc1 : inactive
COc1ccc(-c2noc(CCC(=O)NCc3cccnc3)n2)cc1OC : inactive
CCOC(=O)c1ccc(NC(=S)N2CCCC(C)C2)cc1 (stereo unspecified) : inactive
Cc1cc(NC(=O)c2cc([N+](=O)[O-])cc([N+](=O)[O-])c2C)no1 : inactive

In: Tell me the recorded outcome of this test for `CNC(=O)CN(C)S(=O)(=O)c1ccc(F)cc1` .
Out: active

In: Now give it for `COc1ccc(CC(=O)NCC(=O)N/N=C/c2c[nH]c3ccccc23)cc1` too.
Out: inactive

In: Record: COc1cc(C(C(=O)NC(C)(C)C)N(C(=O)CNC(=O)c2cccs2)c2ccc(C(C)C)cc2)cc(OC)c1OC (stereo unspecified)
Out: inactive

###

# METHOD DESCRIPTION: qHTS Assay for Lipid Storage Modulators in Drosophila S3 Cells
# CONDITION LABEL: BODIPY lipid droplet fluorescence, 18-24 h, cells fed with added oleic acid; series mostly up to 46.1 µM
In all, about 320,000 compounds went through this assay and about 2,100 (0.66%) were called active. Inconclusive results (about 53%) are left out. Calls follow the shape of the dose curve; as a rule, active = well fitted inhibition curve with a large enough effect in the signal ratio, with a control signal flat (not every such curve was filed as active); inconclusive = small, poorly fitted or top-dose-only effect, or effect the other way, or a change in a side signal; inactive = flat fitted curve, though single readings scatter; the % refers to the signal ratio. This is one part of a sample in which actives are shown more often than they occur.
Permitted responses: t (active), f (inactive)

COc1cc(/C=C2/C(=N)N3N=C(C)SC3=NC2=O)ccc1OS(=O)(=O)c1ccc(C)cc1 : f
CCOC(=O)/C(=N\Nc1cccc(Cl)c1)Sc1nnc(-c2ccc(OC)cc2)n1C : f
COc1ccc(NC(=O)c2ccc3c(c2)n(C)c(=O)n3C)cc1 : f
COc1cccc(CN2CCN(C3CCN(c4ccccc4C)CC3)CC2CCO)c1 (configuration not stated) : f
COc1cc(/C=C2\C(=N)N3N=CSC3=NC2=O)ccc1OS(=O)(=O)c1ccccc1 : t

In: What outcome does the record of this test show for CC1CCc2nc(N)c(C#N)c(-c3cccn3C)c2C1 (configuration not stated) ?
Out: f

In: Also, `CN(C(=O)c1ccccc1Cl)c1ccccc1` please.
Out: f

In: Input COc1cccc(NC(=O)C(Cc2ccccc2)n2cccc2)c1 (configuration not stated)
Out: f

In: How about this compound: `C/C(=N\NC(=O)c1c([N+](=O)[O-])c(C)nn1C)c1ccc(NC(=O)C2CCCC2)cc1`
Out: f

In: Field entry: `CN(C)S(=O)(=O)c1ccc(NC=C(C#N)C#N)cc1`
Out: f

In: # repeat for `CC(C)Oc1ccc(C(=O)Nc2ccc3c(c2)n(C)c(=O)n3C)cc1`
Out: t

In: Do the same for `C/C(=N\NC(=O)c1ccn(C)n1)c1ccc(NC(=O)C2CCC2)cc1` please
Out: t

In: Can you handle `CCN(C(=O)CCC(=O)N(CC)c1ccccc1)c1ccccc1` next?
Out: f

In: Subsequent entry: `COc1ccccc1/C=C/C(=O)OCC(=O)c1cc(C)n(C)c1C`
Out: t

In: Follow-up entry: `COc1cc(/C=C2\C(=N)N3N=C(S(C)(=O)=O)SC3=NC2=O)ccc1OS(=O)(=O)c1ccccc1`
Out: f

In: And `CCO[C@@H]1OC(C(=O)N2CCN(Cc3ccc4c(c3)OCO4)CC2)=C[C@H](c2csc3ccccc23)[C@H]1CCCO` ?
Out: f

In: Same question, `CCOC(=O)N1CCN(C(=O)C2CCN(S(=O)(=O)c3cc(Cl)ccc3Cl)CC2)CC1` this time
Out: f

In: Now consider `Cc1cc(C(=O)COC(=O)/C=C/c2cccc(Br)c2)c(C)n1C` .
Out: f

In: Thanks! And `COc1ccccc1NC(=S)NC1CCCCC1` ?
Out: f

In: Record: `CCN(C(=O)c1ccccc1Cl)c1ccccc1`
Out: t

In: Follow-up item: CC12CCC(C(=O)Nc3ccccc3)(C(Br)C1=O)C2(C)C (configuration not stated)
Out: f

In: Cool, now `O=S(=O)(c1cccs1)N1CCC(Cc2ccccc2)CC1`
Out: f

###

# METHOD DESCRIPTION: qHTS Assay for Lipid Storage Modulators in Drosophila S3 Cells;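 as to cell number change: cells counted by Cell Tracker Red CMTPX staining in the red channel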
# CONDITION LABEL: BODIPY lipid droplet fluorescence, 18-24 h, cells fed with added oleic acid; measured here: cell count max response
The whole screen tested about 320,000 compounds, of which about 2,100 (0.66%) were called active. Another 53% or so got no clear call; they are omitted. This excerpt belongs to a sample that is enriched for actives.
READOUT NAME: cell number change (%)
I only need the number, in %, no unit after it.

Use these answered entries as a reference point.
COc1ccc(N2CCN(C(=O)CSc3nc4ccccc4c(=O)[nH]3)CC2)cc1 : -2.61
CCCN(CC(=O)Nc1ccccc1C)C(=O)c1ccc(N2CCCCC2)c([N+](=O)[O-])c1 : -25
CCOC(=O)Cc1csc(NC(=S)NC(=O)c2cc(OC)c(OC)c(OC)c2)n1 : -1.2
CCOC(=O)c1sc(N2N=C(C)/C(=C\c3ccc(OCC(=O)OC)cc3)C2=O)nc1C : 0.316
Cc1cc2c(cc1S(=O)(=O)Nc1cccc(C)c1C)n(C)c(=O)c(=O)n2C : -26.2
COc1ccc(N2CCN(C(=O)CSc3ccc(C)cc3)CC2)cc1 : 6.76
NS(=O)(=O)c1ccc(NC(=O)CSC2=NC(=O)C(c3ccccc3)C(=O)N2)cc1 (stereo unspecified) : -0.978
CCCNC(=O)c1oc2ccc3c(c2c1C)C(O)CC(C)(C)O3 (stereo unspecified) : 11.7

In: Need cell number change of `CC(C)c1c(C(=O)N/N=C/c2cccnc2)nnn1-c1nonc1N` , thanks.
Out: -22.2

In: Also CCC1C(=O)N=C(SCC(=O)Nc2ccccc2)NC1=O (stereo unspecified) , if possible.
Out: 7.84

In: What about CCOc1ccc2nc(CN3CCN(Cc4ccsc4)C(CCO)C3)ccc2c1 (stereo unspecified) ?
Out: 3.37

In: Let us now turn to `Cc1cc2c(cc1S(=O)(=O)N(C)Cc1ccccc1)n(C)c(=O)c(=O)n2C`
Out: -28.5

In: One more compound: `COc1ccc(NC(=O)CN2C(=O)NC3(CCCC3)C2=O)c(OC)c1`
Out: -7.62
